Each recorded value in this set is attributed to patent US10913773B2.

Target: TNFα (Homo sapiens)
Construct: ybbR tag (13 aa) (N); made in house; host or cells: Escherichia coli
Assay: Fluorescence anisotropy (FA) binding of fluorescently labeled bicyclic peptides to TNFα
Conditions: labeled at free N-terminal amine with 6-carboxyfluorescein
Method: FITC-labeled bicyclic peptide (50 or 100 nM) were incubated with varying concentrations of TNFα (0-5 μM) in 30 mM HEPES, pH 7.4, 150 mM NaCl, and 2 mM magnesium acetate for 2 h. The FA values were measured on a Molecular Devices Spectramax M5 spectrofluorimeter, with excitation and emission wavelengths at 485 and 525 nm, respectively. Equilibrium dissociation constants (KD) were determined by plotting the FA values as a function of TNFα concentration and fitting the data to the following equation […]
value_kind: pKd
Please express pKd as -log10 of the molar concentration.

Quick one: pKd for CC(=O)[C@@H]1CCCN(C(=O)[C@@H](Cc2c[nH]cn2)NC(=O)C(N)C(C)C)C1 (stereo partly shown) ?
7.40
